molecular target: MMP-3 (Homo sapiens); construct: Catalytic domains MMP-2, MMP-3 and MMP-9 were prepared in Pfizer Central Research laboratories; made in house; assay: Inhibition of MMP-3 (fluorogenic peptide cleavage); format: biochemical; settings: in vitro, catalytic domain MMP-3
Sequence (P08254 100-272 limits assumed): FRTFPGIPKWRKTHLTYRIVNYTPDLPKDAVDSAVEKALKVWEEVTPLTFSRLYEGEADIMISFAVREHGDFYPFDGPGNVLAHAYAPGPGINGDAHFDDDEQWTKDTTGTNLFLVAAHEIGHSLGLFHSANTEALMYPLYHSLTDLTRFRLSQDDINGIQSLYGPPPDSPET
# reported IC50; entries follow
Give a bare numeral; the unit nM is implied.

A selection of reference data follows.
- COMPOUND: "Cc1cc(C2=CCN(S(=O)(=O)CC(=O)NO)CC2)ccc1-c1ccc2c(c1)OCO2 [Example 56]"
  SYSTEM_UNDER_TEST: "MMP-3 (Homo sapiens)"
  RESULT_NUMBER: 15
- COMPOUND: "C=CCC(C)(C(=O)NO)S(=O)(=O)N1CC=C(c2ccc(-c3ccccc3)c(C)c2)CC1 (racemic) [Example 15]"
  SYSTEM_UNDER_TEST: "MMP-3 (Homo sapiens)"
  RESULT_NUMBER: 20

Prompt: Which IC50 is reported for this compound? COc1cccc(-c2ccc(C3CCN(S(=O)(=O)C4(C(=O)NO)Cc5ccccc5C4)CC3)cc2C)c1 [Example 50]
Completion: 23
